The reported numbers originate from PubChem BioAssay.

Subject Of Test: Alpha-2C adrenergic receptor (Homo sapiens)
Assay Summary: compounds altering alpha2C-coupled GIRK flux – cell-based, HEK293 alpha2C/GIRK1/2, thallium flux, primary screen (AID 624);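 further: slope of fluorescence ratio to pre-addition baseline per second over 15 to 24 s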
Conditions: thallium flux BTC fluorescence, at 10 µM, actives lie on both sides
Provide the reported slope of each item.
In your answer, state the number alone without any accompanying words.

Sample CC1CCCCC1NC(=O)c1ccc(N2CCCC2=O)cc1 (stereo not given) , system: Alpha-2C adrenergic receptor (Homo sapiens). Its slope is 0.00599

Sample CCCCN1C(=O)C2C(C(=O)Nc3cccc(OC)c3)C3C=CC2(O3)C1C(=O)NC1CCCCC1C (stereo not given) , system: Alpha-2C adrenergic receptor (Homo sapiens). Its slope is 0.00569

Sample `COc1cc(OC)nc(NC(=O)CSc2nc3ccccc3o2)n1` , system: Alpha-2C adrenergic receptor (Homo sapiens). Its slope is 0.00329

Sample `CCCCCc1c(C)nc(SCC(=O)O)[nH]c1=O` , system: Alpha-2C adrenergic receptor (Homo sapiens). Its slope is 0.00694

Sample CCOc1cc(-c2nc3ccccn3c2NCC2CCCO2)ccc1O (stereo not given) , system: Alpha-2C adrenergic receptor (Homo sapiens). Its slope is 0.00327

Sample `Cc1cc(C(F)(F)F)nn1Cc1ccc(C(=O)NCc2ccco2)o1` , system: Alpha-2C adrenergic receptor (Homo sapiens). Its slope is 0.00427

Sample `CCN1C(=O)c2cccc3c(NC(=O)c4ccc5c(c4)OCCO5)ccc1c23` , system: Alpha-2C adrenergic receptor (Homo sapiens). Its slope is -0.00194

Sample `COCCn1nnnc1CN1CCC(Cc2ccccc2)CC1` , system: Alpha-2C adrenergic receptor (Homo sapiens). Its slope is 0.00482

Sample `O=C1C(Cl)=C(N2CCOCC2)C(=O)N1CCc1ccccc1` , system: Alpha-2C adrenergic receptor (Homo sapiens). Its slope is 0.0076

Sample `CCn1nnc(NC(=O)c2ccccc2Br)n1` , system: Alpha-2C adrenergic receptor (Homo sapiens). Its slope is 0.00604

Sample `COc1cccc(-c2nnc(NC(=O)Cc3cccs3)s2)c1` , system: Alpha-2C adrenergic receptor (Homo sapiens). Its slope is 0.00526

Sample `CCOC(=O)N1CCN(S(=O)(=O)c2ccc(F)c(C(=O)Nc3cc(C)cc(C)c3)c2)CC1` , system: Alpha-2C adrenergic receptor (Homo sapiens). Its slope is 0.00302

Sample COc1ccc(OC)c(S(=O)(=O)N2CCC(C(=O)NCC3CCCO3)CC2)c1 (stereo not given) , system: Alpha-2C adrenergic receptor (Homo sapiens). Its slope is 0.00611

Sample `O=C(CSc1nnnn1-c1ccc2c(c1)OCO2)NCc1cccs1` , system: Alpha-2C adrenergic receptor (Homo sapiens). Its slope is 0.00659

Sample COC(=O)C(C)Sc1nnc2n(-c3cccc(C)c3)c(=O)c3c4c(sc3n12)CCCC4 (stereo not given) , system: Alpha-2C adrenergic receptor (Homo sapiens). Its slope is 0.00585

Sample CC(=O)NC(Cc1ccccc1)C(=O)NC1CCN(C(=O)c2cnccn2)CC1 (stereo not given) , system: Alpha-2C adrenergic receptor (Homo sapiens). Its slope is 0.00556

Sample CCOC(=O)N1CCC(N2CC34C=CC(O3)C(C(=O)O)C4C2=O)CC1 (stereo not given) , system: Alpha-2C adrenergic receptor (Homo sapiens). Its slope is 0.00719

Sample `Cc1cccnc1NC(=O)CCCN1C(=O)c2ccccc2C1=O` , system: Alpha-2C adrenergic receptor (Homo sapiens). Its slope is 0.00485

Sample `Cc1ccc(-n2nc(C)c3cc(C(=O)O)sc32)cc1` , system: Alpha-2C adrenergic receptor (Homo sapiens). Its slope is 0.00582

Sample `Cn1c(=O)[nH]c(=O)c2c1nc(Br)n2Cc1ccccc1F` , system: Alpha-2C adrenergic receptor (Homo sapiens). Its slope is 0.00509

Sample C/C(=N\O)C(C)/[N+]([O-])=C/c1nc(C)c(C)n1O (stereo not given) , system: Alpha-2C adrenergic receptor (Homo sapiens). Its slope is 0.00463

Sample `O=C1c2ccccc2C(=O)N1CCC(=O)N1CCc2ccccc21` , system: Alpha-2C adrenergic receptor (Homo sapiens). Its slope is 0.005

Sample CC(C)C1C2=C(CC(C)(C)CC2=O)ON1c1ccccc1 (stereo not given) , system: Alpha-2C adrenergic receptor (Homo sapiens). Its slope is 0.0045

Sample `COc1ccc(OC)c(CNC(=O)COc2cc(=O)n(C)c3ccccc23)c1` , system: Alpha-2C adrenergic receptor (Homo sapiens). Its slope is 0.00576

Sample `Cc1ccc(S(=O)(=O)N2CCOCC2)cc1C(=O)Nc1nc(-c2cccnc2)cs1` , system: Alpha-2C adrenergic receptor (Homo sapiens). Its slope is 0.00585

Sample `CCCCc1cc(=O)oc2cc(OCC(=O)N(CC)CC)c(Cl)cc12` , system: Alpha-2C adrenergic receptor (Homo sapiens). Its slope is 0.00654

Sample CC(C)CCNC(=O)C(C)N(Cc1ccc(F)cc1)C(=O)c1ccc(CN2CCCCC2)o1 (stereo not given) , system: Alpha-2C adrenergic receptor (Homo sapiens). Its slope is 0.00436

Sample `COc1ccc2c(CC(=O)Nc3ccc(OC)c(NS(=O)(=O)c4ccc(F)cc4)c3)coc2c1` , system: Alpha-2C adrenergic receptor (Homo sapiens). Its slope is 0.00715

Sample COc1cccc(C2CC(c3ccc(F)cc3)Nc3nc(N)nn32)c1 (stereo not given) , system: Alpha-2C adrenergic receptor (Homo sapiens). Its slope is 0.00747

Sample `CCCSc1nnc(-c2ccccc2NC(=O)CC)c(=O)[nH]1` , system: Alpha-2C adrenergic receptor (Homo sapiens). Its slope is 0.00431

Sample `COc1cccc(C(=O)OCn2nnc3ccccc3c2=O)c1OC` , system: Alpha-2C adrenergic receptor (Homo sapiens). Its slope is 0.00547

Sample `O=C(c1cc2cc(Cl)cc(Cl)c2oc1=O)N1CCOCC1` , system: Alpha-2C adrenergic receptor (Homo sapiens). Its slope is 0.0058

Sample O=C(NC1CCCC1)C1CC1c1ccccc1 (stereo not given) , system: Alpha-2C adrenergic receptor (Homo sapiens). Its slope is 0.00431

Sample COC(=O)C1C(=O)c2c([nH]c(C(=O)OCCOC(C)C)c2C)CC1C (stereo not given) , system: Alpha-2C adrenergic receptor (Homo sapiens). Its slope is 0.00401

Sample COc1ccc(C(C(=O)NC2CCCCC2)N2CCC3(CC2)OCCO3)cc1 (stereo not given) , system: Alpha-2C adrenergic receptor (Homo sapiens). Its slope is 0.00579

Sample `CCCn1c(N)c(C(=O)CSc2nnc(Cc3ccccc3)o2)c(=O)n(C)c1=O` , system: Alpha-2C adrenergic receptor (Homo sapiens). Its slope is 0.00683

Sample `Cc1nc(NCc2ccc3c(c2)OCO3)c2oc3ccccc3c2n1` , system: Alpha-2C adrenergic receptor (Homo sapiens). Its slope is 0.00488

Sample Cc1ccc(N(C(C)C(=O)Nc2ccc(S(=O)(=O)N3CCOCC3)cc2)S(C)(=O)=O)cc1 (stereo not given) , system: Alpha-2C adrenergic receptor (Homo sapiens). Its slope is 0.00486

Sample COc1ccc(Br)cc1C1N2CC3(C)CN1CC(C)(C2)C3=O (stereo not given) , system: Alpha-2C adrenergic receptor (Homo sapiens). Its slope is 0.00688

Sample `COc1ccc(Nc2ncnc3c2cnn3-c2ccccc2)cc1OC` , system: Alpha-2C adrenergic receptor (Homo sapiens). Its slope is 0.00554

Sample Cc1ccc(S(=O)(=O)Cn2nnnc2C(C(C)C)N2CCN(C(=O)c3ccco3)CC2)cc1 (stereo not given) , system: Alpha-2C adrenergic receptor (Homo sapiens). Its slope is 0.00633

Sample O=C(Nn1cnnc1)C1Cc2ccccc2CN1S(=O)(=O)c1ccc(F)cc1 (stereo not given) , system: Alpha-2C adrenergic receptor (Homo sapiens). Its slope is 0.00658

Sample `CC(C)Oc1cc2oc(=O)c3c(c2cc1Cl)CCC3` , system: Alpha-2C adrenergic receptor (Homo sapiens). Its slope is 0.00687

Sample `CN(CC(=O)N1CCCc2c1c(=O)oc1ccc(O)cc21)Cc1ccccc1` , system: Alpha-2C adrenergic receptor (Homo sapiens). Its slope is 0.00473

Sample `CCc1ccc(C=NC23CN4CN(CN(C4)C2)C3)s1` , system: Alpha-2C adrenergic receptor (Homo sapiens). Its slope is 0.00606

---

Subject Of Test: Alpha-2C adrenergic receptor (Homo sapiens) (UniProt P18825)
Sequence (P18825 whole entry, looked up): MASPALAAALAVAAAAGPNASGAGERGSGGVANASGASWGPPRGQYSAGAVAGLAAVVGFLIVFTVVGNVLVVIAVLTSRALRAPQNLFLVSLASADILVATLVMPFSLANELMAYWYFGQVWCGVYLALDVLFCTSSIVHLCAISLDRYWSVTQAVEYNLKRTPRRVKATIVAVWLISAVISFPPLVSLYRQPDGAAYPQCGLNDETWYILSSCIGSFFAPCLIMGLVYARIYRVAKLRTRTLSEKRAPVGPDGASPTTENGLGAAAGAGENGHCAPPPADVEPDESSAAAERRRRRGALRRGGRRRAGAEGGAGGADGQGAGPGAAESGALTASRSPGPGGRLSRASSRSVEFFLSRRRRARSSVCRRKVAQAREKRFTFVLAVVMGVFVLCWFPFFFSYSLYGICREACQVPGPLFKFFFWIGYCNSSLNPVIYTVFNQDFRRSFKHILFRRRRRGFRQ
Assay Summary: compounds altering alpha2C-coupled GIRK flux – cell-based, HEK293 alpha2C/GIRK1/2, thallium flux, primary screen (AID 624);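 further: slope of fluorescence ratio to pre-addition baseline per second over 15 to 24 s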
Conditions: thallium flux BTC fluorescence, at 10 µM, actives lie on both sides
Provide the reported slope of each item.
In your answer, state the number alone without any accompanying words.

Notebook: `Cc1ccccc1-c1nc(CN2CCC(C(=O)NC3CCN(Cc4ccccc4)CC3)CC2)c(C)o1` , slope read as 0.0054

Notebook: `CCN(CC)Cc1c(C(=O)OC)nnn1-c1nonc1N` , slope read as 0.00521

Notebook: `O=C1CCc2cc(S(=O)(=O)N3CCC(C(=O)NCc4ccccn4)CC3)ccc2N1` , slope read as 0.00666

Notebook: CCOC(=O)N1CCC(N(C(=O)Nc2cccc(OC)c2)C(C)CC)CC1 (stereo not given) , slope read as 0.00561

Notebook: `COCCn1c(C23CC4CC(CC(C4)C2)C3)n[nH]c1=S` , slope read as 0.00347
